In this section, each of the variants is paired with its reported protein stability index.
B1: LOXL2 (parent)
chain: YVEVKEGKTWKQICDKHWTAKNSR

- Variants of: B1
- EXPERIMENT_SUMMARY: protein stability index of a GFP-peptide fusion (GPS, HEK-293T) (PSI 1-6); higher = more stable;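 further: lentivirally expressed fusions sorted by FACS into six bins by GFP to DsRed ratio, PSI derived from sequencing read proportions per bin multiplied by bin number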
- CONDITION_INFO: c terminus: a fixed tail appended
# output: bare number, no unit

Worked set:
SEQUENCE_DATA	protein stability index
YVEVKEGKTWKQICDKHWTAKSSR [N22S]	1.92
YVEVKEIKTWKQICDKHWTAKNSR [G7I]	1.85
YYEVKEGKTWKQICDKHWTAKNSR [V2Y]	2.8
YVDVKEGKTWKQICDKHWTAKNSR [E3D]	2.63
YVEHKEGKTWKQICDKHWTAKNSR [V4H]	1.74

Consider the record given below.
Looking up YVEVKEGKTWKQICDKNWTAKNSR [H17N] , I found its protein stability index recorded as 2.89

Recorded values, source the supplement of paper PMC10567573.
